- TARGET DESC: OsWRKY34 (Oryza sativa, UniProt Q0JBA9 1-250)
- Sequence (Q0JBA9 entry or part of it): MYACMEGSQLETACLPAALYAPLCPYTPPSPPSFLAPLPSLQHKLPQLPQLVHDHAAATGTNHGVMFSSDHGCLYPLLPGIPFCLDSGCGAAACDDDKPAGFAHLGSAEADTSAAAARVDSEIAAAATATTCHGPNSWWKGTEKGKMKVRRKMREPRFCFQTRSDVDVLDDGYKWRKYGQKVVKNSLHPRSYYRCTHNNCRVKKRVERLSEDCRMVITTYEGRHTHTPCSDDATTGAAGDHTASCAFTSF
- ASSAY: protein-binding microarray (RPBM); PBS, 2% BSA, 51.3 ng/ul salmon testes DNA, 50 uM zinc acetate, 200 nM TF, 25 C, 1 h; high values mean tight binding
- MEASUREMENT PARAMETERS: protein: recombinant; tags: N-terminal polyhistidine and DsRed monomer fusion (pET32a); label: CyDye5-dUTP incorporated in the synthesized complementary strand; 3' TTTTT single-stranded linker to array surface; dsDNA, one strand shown
In all, about 68,000 sequences were measured (“fluorescence intensity (a.u.)”: median about 9,100, highest 2% from about 16,000 on). The list comes from a sample in which the highest values are over-represented; it also holds close analogues and randomly drawn sequences.

{"SEQUENCE TEXT": "ACTGCTAATTCGTCTATTTTGTACCACTTTCTCTATTTTTCGGAGTCACCTAGTGCAG", "binding signal": "16500 fluorescence intensity (a.u.)"}
{"SEQUENCE TEXT": "ATGGTTGGTTTCGTGCTCTGTTTTTTTTTGGGAGAATTCGCGGAGTCACCTAGTGCAG", "binding signal": "12800 fluorescence intensity (a.u.)"}
{"SEQUENCE TEXT": "CTTCTATTTTCTTTCTGCTCTTCTCTTCTCTTGTCTACTTCGGAGTCACCTAGTGCAG", "binding signal": "10300 fluorescence intensity (a.u.)"}
{"SEQUENCE TEXT": "TTTTACCAACTTTCTTAATACTCGTGTCCACCTAAAAAATCGGAGTCACCTAGTGCAG", "binding signal": "8440 fluorescence intensity (a.u.)"}
{"SEQUENCE TEXT": "GTTCTTCTTCTTCTTCTTCTTTTTTTCGTCCAAGGCCACTCGGAGTCACCTAGTGCAG", "binding signal": "8280 fluorescence intensity (a.u.)"}
{"SEQUENCE TEXT": "CACCTCGCGCCGCGCCCCATCCTTATCGTCATGACACGCCCGGAGTCACCTAGTGCAG", "binding signal": "8810 fluorescence intensity (a.u.)"}
{"SEQUENCE TEXT": "TCTCTTCCGGTCGGAAGCTTGCTTTCCTTTTCTTCTTCTTCGGAGTCACCTAGTGCAG", "binding signal": "8360 fluorescence intensity (a.u.)"}
{"SEQUENCE TEXT": "ACGGCGAGACGGTTTGCGGCGGCGGCGGTGGGGTTGGGATCGGAGTCACCTAGTGCAG", "binding signal": "10600 fluorescence intensity (a.u.)"}
{"SEQUENCE TEXT": "GTTTATCTCTATCTTTTTTTCATCTTCTCTCTATATATATCGGAGTCACCTAGTGCAG", "binding signal": "11000 fluorescence intensity (a.u.)"}
{"SEQUENCE TEXT": "ATTTTGTTTCTCCTTGGTTGGTTTTGCTTCACCTAGATCACGGAGTCACCTAGTGCAG", "binding signal": "11200 fluorescence intensity (a.u.)"}
{"SEQUENCE TEXT": "ACCATCAAGTTCTGCTTTTCTTCCCCATGTTTTTTTGCCCCGGAGTCACCTAGTGCAG", "binding signal": "10700 fluorescence intensity (a.u.)"}
{"SEQUENCE TEXT": "GTCTCCATTGCACCCACGTTGGATCCGCCCTTGCACATGGCGGAGTCACCTAGTGCAG", "binding signal": "8470 fluorescence intensity (a.u.)"}
{"SEQUENCE TEXT": "CTGCACCTAAAGCCTTTCAGAAAACTTTTCACCCTGTCAACGGAGTCACCTAGTGCAG", "binding signal": "8740 fluorescence intensity (a.u.)"}
{"SEQUENCE TEXT": "GGCGAAGTACTTCTTGGTGTTGTTGCTGCCGCTGCCGGCGCGGAGTCACCTAGTGCAG", "binding signal": "8120 fluorescence intensity (a.u.)"}
{"SEQUENCE TEXT": "CGGAGTCGGTCAAGCTTAACCACTATTCCTTTCCGGATTGCGGAGTCACCTAGTGCAG", "binding signal": "61500 fluorescence intensity (a.u.)"}
{"SEQUENCE TEXT": "GGAGATCTTATACCCGATTTTACTGTTGAGGATTGTGACTCGGAGTCACCTAGTGCAG", "binding signal": "8640 fluorescence intensity (a.u.)"}
{"SEQUENCE TEXT": "GCCAGACCGCCACCGTCCGTTTCCACAACCGTGCCAGTGCCGGAGTCACCTAGTGCAG", "binding signal": "10700 fluorescence intensity (a.u.)"}
{"SEQUENCE TEXT": "CAAAATCCTTTTTCTTTTTTTCATTTTTTCTGTGCTTTTTCGGAGTCACCTAGTGCAG", "binding signal": "8680 fluorescence intensity (a.u.)"}
{"SEQUENCE TEXT": "CTCTGTAATATATCATTATGACTGCTAATTCGTCTATTTTCGGAGTCACCTAGTGCAG", "binding signal": "8080 fluorescence intensity (a.u.)"}
